# System: zebrafish Peroxisome Proliferator-activated Receptor gamma (PPARg), gene 557037
# Protocol: ATG_zfPPARg_EcoTox2: Attagene TRANS-FACTORIAL EcoTox-2 HepG2 Assay for zebrafish Peroxisome Proliferator-activated Receptor gamma (PPARg)
# Source text: ATG_EcoTox2 is a cell-based, multiplexed assay created by modifying the existing Attagene TRANS-FACTORIAL system to include a panel of nuclear receptors from some or all the following species: human (Homo sapiens), african clawed frog (Xenopus laevis), rainbow trout (Oncorhynchus mykiss), japanese medaka (Oryzias latipes), and zebrafish (Danio rerio). […] ATG_zfPPARg_EcoTox2 is one of 29 assay components calculated in the ATG_EcoTox2 assay. […]
Results filed as inconclusive are left out. Calls of active or inactive are those of the source. Rule for the calls: active = hit-call score of the fitted dose curve at least 0.9, where 1 is the maximum; inconclusive = response in the unintended direction; inactive = score below 0.9.
Possible outcomes: active, inactive

Molecule	Label Class
Cc1nc(-c2ccc(C(F)(F)F)cc2)sc1C(=O)NCc1ccc(OC(C)(C)C(=O)O)cc1	active
CC(C)OC(=O)C(C)(C)Oc1ccc(C(=O)c2ccc(Cl)cc2)cc1	inactive
CC(C)(Oc1ccc(Cl)cc1)C(=O)O	inactive
Cc1c(C)c2c(c(C)c1O)CCC(C)(COc1ccc(CC3SC(=O)NC3=O)cc1)O2 (stereo not given)	inactive
C[C@@H]1C[C@H]2[C@@H]3CCC4=CC(=O)C=C[C@]4(C)[C@@]3(F)[C@@H](O)C[C@]2(C)[C@@]1(O)C(=O)COP(=O)(O)O	inactive
